- Assay protocol: Metabolic stability in human liver microsomes assessed as intrinsic clearance in presence of NADPH at 1 uM by LC-MS/MS analysis
- Format: ADME, Microsome
- Applied conditions: read-out: CLH
Measurement type: microsomal CLint at 1 µM (µL/min/mg)

[A] Cc1ccc(-c2cc(/C=C/c3ccc(C(=O)NO)cc3)ccn2)c(F)c1
[B] O=C(NO)c1ccc(/C=C/c2ccnc(-c3ccccc3O)c2)cc1
Name the one with the greater microsomal CLint at 1 µM value, either A or B as given. Pick one; state its label.
B
(B: 105 µL/min/mg, A: 67.4 µL/min/mg)

###

- Target entity: Histone deacetylase 2 (Homo sapiens, UniProt Q92769)
- Sequence (Q92769 whole entry): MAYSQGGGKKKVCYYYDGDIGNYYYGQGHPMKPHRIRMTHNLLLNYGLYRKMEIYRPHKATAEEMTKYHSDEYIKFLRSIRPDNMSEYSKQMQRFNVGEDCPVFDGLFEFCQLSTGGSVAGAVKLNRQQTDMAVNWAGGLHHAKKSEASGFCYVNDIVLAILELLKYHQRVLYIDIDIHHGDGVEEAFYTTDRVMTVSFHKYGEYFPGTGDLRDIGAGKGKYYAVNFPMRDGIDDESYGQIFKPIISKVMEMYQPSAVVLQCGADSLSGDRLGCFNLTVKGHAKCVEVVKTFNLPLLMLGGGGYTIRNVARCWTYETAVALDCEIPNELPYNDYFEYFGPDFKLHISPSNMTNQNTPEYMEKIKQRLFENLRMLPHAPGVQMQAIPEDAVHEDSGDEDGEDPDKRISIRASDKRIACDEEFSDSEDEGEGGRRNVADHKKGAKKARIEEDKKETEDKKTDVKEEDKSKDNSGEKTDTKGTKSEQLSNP
Measurement type: pIC50
Reminder that pIC50 is minus the log10 of a molar concentration.

Requested field: pIC50. Item: "Cc1ccc(-c2cc(/C=C/c3ccc(C(=O)NO)cc3)ccn2)c(F)c1"
6.39

###

- Target entity: CYP2D6 (Homo sapiens, UniProt P10635)
- Sequence (P10635 whole entry): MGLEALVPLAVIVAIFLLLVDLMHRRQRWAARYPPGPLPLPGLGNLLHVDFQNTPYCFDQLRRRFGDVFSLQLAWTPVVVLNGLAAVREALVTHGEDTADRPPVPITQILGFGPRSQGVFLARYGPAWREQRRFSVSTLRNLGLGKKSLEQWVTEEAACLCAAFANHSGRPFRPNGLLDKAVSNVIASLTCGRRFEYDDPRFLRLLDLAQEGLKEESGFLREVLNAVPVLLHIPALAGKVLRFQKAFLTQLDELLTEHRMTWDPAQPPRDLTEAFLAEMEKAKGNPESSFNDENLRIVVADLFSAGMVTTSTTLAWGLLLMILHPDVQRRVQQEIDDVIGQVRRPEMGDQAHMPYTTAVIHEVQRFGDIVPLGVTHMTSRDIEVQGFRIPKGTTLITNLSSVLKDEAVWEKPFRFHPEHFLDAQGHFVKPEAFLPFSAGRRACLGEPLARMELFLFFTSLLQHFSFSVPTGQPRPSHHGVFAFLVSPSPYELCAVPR
- Assay protocol: Inhibition of CYP2D6 (unknown origin) at 10 uM using dextromethorphan as substrate relative to control
- Assay type: ADME
- Applied conditions: probe dextromethorphan
Measurement type: inhibition at 10 µM (%)

[P] Cc1ccc(-c2cc(/C=C/c3ccc(C(=O)NO)cc3)ccn2)c(F)c1
[Q] O=C(NO)c1ccc(/C=C/c2ccnc(-c3ccccc3O)c2)cc1
// compare measured inhibition at 10 µM between P and Q ; output the lower one Pick one; state its label.
P

###

- Target entity: Lysine-specific histone demethylase 1A (Homo sapiens, UniProt O60341)
- Assay protocol: Inhibition of recombinant LSD1 (157 to 852 residues) (unknown origin) expressed in Escherichia coli BL21 (DE) using H3K4me2 as substrate by amplex red assay
pIC50: −log10 of the molar value.
Measurement type: pIC50

O=C(NO)c1ccc(/C=C/c2ccnc(-c3ccsc3)c2)cc1	5.69
O=C(NO)c1ccc(/C=C/c2ccncc2)cc1	6.07
O=C(NO)c1ccc(/C=C/c2ccnc(-c3cccc(CO)c3)c2)cc1	5.94

[a] O=C(NO)c1ccc(/C=C/c2cccc(-c3cccc(O)c3)c2)cc1
[b] O=C(NO)c1ccc(/C=C/c2cccc(-c3ccccc3O)c2)cc1
// compare measured pIC50 between a and b ; output the lower one Pick one; state its label.
a

###

- Target entity: Amine oxidase [flavin-containing] B (Homo sapiens, UniProt P27338)
- Sequence (P27338 whole entry): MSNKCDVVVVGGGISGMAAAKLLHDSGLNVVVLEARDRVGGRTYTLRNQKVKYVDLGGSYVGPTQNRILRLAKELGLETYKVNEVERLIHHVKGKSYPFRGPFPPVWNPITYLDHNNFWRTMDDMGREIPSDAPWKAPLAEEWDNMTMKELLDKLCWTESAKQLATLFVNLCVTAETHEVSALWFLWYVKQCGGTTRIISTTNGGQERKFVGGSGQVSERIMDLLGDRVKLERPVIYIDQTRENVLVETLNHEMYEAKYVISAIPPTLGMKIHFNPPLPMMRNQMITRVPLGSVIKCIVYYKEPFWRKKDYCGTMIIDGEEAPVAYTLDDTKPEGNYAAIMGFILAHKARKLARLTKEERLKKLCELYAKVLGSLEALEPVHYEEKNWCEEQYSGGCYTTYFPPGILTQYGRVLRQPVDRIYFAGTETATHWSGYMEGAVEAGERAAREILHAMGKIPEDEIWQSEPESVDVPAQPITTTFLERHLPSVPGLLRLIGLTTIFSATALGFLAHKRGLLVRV
- Assay protocol: Inhibition of human recombinant MAO-B by multimode plate reader assay
Measurement type: pIC50
Reminder that pIC50 is minus the log10 of a molar concentration.

Requested field: pIC50. Item: "O=C(NO)c1ccc(/C=C/c2ccnc(-c3ccccc3O)c2)cc1"
4.16

###

- Assay protocol: Metabolic stability in rat liver microsomes assessed as half life in presence of NADPH at 1 uM by LC-MS/MS analysis
- Assay type: ADME, Microsome
Measurement type: half-life at 1 µM (min)

[1] Cc1ccc(-c2cc(/C=C/c3ccc(C(=O)NO)cc3)ccn2)c(F)c1
[2] O=C(NO)c1ccc(/C=C/c2ccnc(-c3ccccc3O)c2)cc1
// compare measured half-life at 1 µM between 1 and 2 ; output the lower one Pick one; state its label.
2
(2: 6.9 min, 1: 17.2 min)

###

- Target entity: CYP2C9 (Homo sapiens)
- Sequence (P11712 whole entry): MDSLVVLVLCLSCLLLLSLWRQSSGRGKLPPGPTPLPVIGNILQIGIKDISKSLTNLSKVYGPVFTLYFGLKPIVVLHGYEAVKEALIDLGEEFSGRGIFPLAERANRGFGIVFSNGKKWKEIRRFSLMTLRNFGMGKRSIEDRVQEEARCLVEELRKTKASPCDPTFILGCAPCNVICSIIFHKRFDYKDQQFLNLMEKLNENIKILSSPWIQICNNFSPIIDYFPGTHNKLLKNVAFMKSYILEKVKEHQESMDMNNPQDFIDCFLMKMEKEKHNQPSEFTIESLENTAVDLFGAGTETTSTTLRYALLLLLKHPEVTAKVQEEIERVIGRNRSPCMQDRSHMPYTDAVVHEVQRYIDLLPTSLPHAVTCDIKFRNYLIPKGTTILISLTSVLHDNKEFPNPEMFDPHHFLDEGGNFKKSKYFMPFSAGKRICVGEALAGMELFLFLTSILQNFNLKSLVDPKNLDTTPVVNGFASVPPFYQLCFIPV
- Assay protocol: in vitro
- Applied conditions: probe diclofenac
Measurement type: inhibition at 1 µM (%)
Provide the reading as a plain figure in %.

Requested field: inhibition at 1 µM. Item: "Nc1ccc(S(=O)(=O)Nc2ccnn2-c2ccccc2)cc1"
79.9

###

- Tested on: MGC-803
- Assay protocol: cells
- Applied conditions: Homo sapiens, MGC-803, 72 h
pIC50: −log10 of the molar value.
Measurement type: pIC50

Example compounds with recorded pIC50:
O=C(NO)c1ccc(/C=C/c2ccnc(-c3cc(F)ccc3O)c2)cc1	5.72
O=C(NO)c1ccc(/C=C/c2cncc(-c3ccccc3O)c2)cc1	5.26
O=C(NO)c1ccc(/C=C/c2cccc(-c3ccccc3O)c2)cc1	5.22

[a] O=C(NO)c1ccc(/C=C/c2ccnc(-c3cccc(O)c3)c2)cc1
[b] O=C(NO)c1ccc(/C=C/c2ccnc(-c3ccsc3)c2)cc1
Name the one with the greater pIC50 value, either a or b as given. Pick one; state its label.
a
(a: 5.68, b: 5.43)

###

- Tested on: HCT-116
- Assay protocol: cells
- Applied conditions: Homo sapiens, HCT-116, 72 h
Measurement type: IC50 (µM)

[I] O=C(NO)c1cccc(/C=C/c2ccnc(-c3cc(F)ccc3O)c2)c1
[II] Cc1ccc(-c2cc(/C=C/c3ccc(C(=O)NO)cc3)c(F)cn2)c(F)c1
// compare measured IC50 between I and II ; output the lower one Pick one; state its label.
II

###

- Target entity: Lysine-specific histone demethylase 1A (Homo sapiens, UniProt O60341)
- Assay protocol: Inhibition of recombinant LSD1 (157 to 852 residues) (unknown origin) expressed in Escherichia coli BL21 (DE) using H3K4me2 as substrate by amplex red assay
pIC50: −log10 of the molar value.
Measurement type: pIC50

[P] O=C(NO)c1ccc(/C=C/c2cncc(-c3ccccc3O)c2)cc1
[Q] O=C(NO)c1ccc(/C=C/c2ccnc(-c3cccc(O)c3)c2)cc1
// compare measured pIC50 between P and Q ; output the lower one Pick one; state its label.
Q
(Q: 5.74, P: 6.29)

###

- Target entity: Amine oxidase [flavin-containing] A (Homo sapiens, UniProt P21397)
- Sequence (P21397 whole entry): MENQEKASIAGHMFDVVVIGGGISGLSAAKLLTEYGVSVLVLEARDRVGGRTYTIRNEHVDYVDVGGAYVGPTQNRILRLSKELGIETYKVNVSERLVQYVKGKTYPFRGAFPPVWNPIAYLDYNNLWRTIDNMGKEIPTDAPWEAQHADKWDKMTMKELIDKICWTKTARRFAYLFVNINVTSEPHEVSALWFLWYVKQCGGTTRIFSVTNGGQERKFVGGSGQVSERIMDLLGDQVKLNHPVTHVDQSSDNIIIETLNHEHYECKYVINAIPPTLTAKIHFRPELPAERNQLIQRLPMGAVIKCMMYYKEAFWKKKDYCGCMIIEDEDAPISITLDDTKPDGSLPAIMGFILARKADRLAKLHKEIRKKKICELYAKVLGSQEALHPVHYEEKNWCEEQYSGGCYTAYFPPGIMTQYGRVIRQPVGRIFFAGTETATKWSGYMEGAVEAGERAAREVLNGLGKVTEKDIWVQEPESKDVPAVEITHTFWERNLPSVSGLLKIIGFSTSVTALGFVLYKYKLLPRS
- Assay protocol: Inhibition of human recombinant MAO-A by multimode plate reader assay
Measurement type: IC50 (µM)
Provide the reading as a plain figure in µM.

Requested field: IC50. Item: "O=C(NO)c1ccc(/C=C/c2ccnc(-c3ccccc3O)c2)cc1"
34.1

###

- Target entity: CYP2C9 (Homo sapiens)
- Assay protocol: Inhibition of CYP2C9 (unknown origin) at 10 uM using diclofenac as substrate relative to control
- Type: ADME
- Applied conditions: probe diclofenac
Measurement type: inhibition at 10 µM (%)

O=C(NO)c1ccc(/C=C/c2ccnc(-c3ccccc3O)c2)cc1	13.1
Cc1ccc(-c2cc(/C=C/c3ccc(C(=O)NO)cc3)ccn2)c(F)c1	11.7

###

- System: HCT-116
- Assay protocol: cells
- Applied conditions: Homo sapiens, HCT-116, 72 h
pIC50: −log10 of the molar value.
Measurement type: pIC50

O=C(NO)c1ccc(/C=C/c2cncc(-c3ccccc3O)c2)cc1	5.33
Cc1ccc(-c2cc(/C=C/c3ccc(C(=O)NO)cc3)ccn2)cc1	5.62
O=C(CCCCCCC(=O)Nc1ccccc1)NO [VORINOSTAT]	5.73
O=C(NO)c1ccc(/C=C/c2ccnc(-c3cc(F)ccc3O)c2)cc1	5.69
Cc1ccc(-c2cncc(/C=C/c3ccc(C(=O)NO)cc3)c2)c(F)c1	5.52
COc1ccc(-c2cc(/C=C/c3ccc(C(=O)NO)cc3)ccn2)cc1	5.45
Cc1ccc(-c2cc(/C=C/c3ccc(C(=O)NO)cc3)ccn2)c(F)c1	6.10
O=C(NO)c1ccc(/C=C/c2ccnc(-c3ccccc3O)c2)cc1	5.84

[P] O=C(NO)c1ccc(/C=C/c2ccncc2)cc1
[Q] O=C(NO)c1ccc(/C=C/c2ccnc(-c3ccsc3)c2)cc1
Name the one with the greater pIC50 value, either P or Q as given. Pick one; state its label.
Q

[P] COc1ccccc1-c1cc(/C=C/c2ccc(C(=O)NO)cc2)ccn1
[Q] O=C(NO)c1ccc(/C=C/c2ccnc(-c3cccnc3)c2)cc1
[R] O=C(NO)c1ccc(/C=C/c2ccnc(-c3cccc(CO)c3)c2)cc1
Please put the entries in order of rising pIC50. List the labels, following the order given in the request.
P, Q, R
(P: 5.07, Q: 5.29, R: 5.77)

[P] COc1ccc(F)cc1-c1cncc(/C=C/c2ccc(C(=O)NO)cc2)c1
[Q] O=C(NO)c1ccc(/C=C/c2ccnc(-c3cccc(O)c3)c2)cc1
Name the one with the greater pIC50 value, either P or Q as given. Pick one; state its label.
Q
